Values compiled from PubChem BioAssay AID2060493.

system: 616215-338-R-J1-PDC tumor spheroids, viability; assay: Anticancer human tumor 616215-338-R-J1-PDC patient-derived colon adenocarcinoma cell line growth inhibition [GQUAD]; settings: second compound 10 µM; first compound 0.0316 µM; stronger effect = lower value; spheroids with HUVEC and MSC
I'd be grateful if you could share measured viability, T/C for these entries.
Numbers only, in %.

Here's what some known entries look like.
molecule: COc1ncnc(C2CC2)c1-c1ncc2cnn(Cc3ccc(-c4nc(C(F)(F)F)cn4C(C)C)cc3)c2n1 + Cc1[nH]c2ccc(F)cc2c1-c1nc2c3cccnc3c3ncccc3c2[nH]1
viability, T/C / %: 97
//
molecule: C#Cc1c(F)ccc2cc(O)cc(-c3ncc4c(N5CC6CCC(C5)N6)nc(OCC56CCCN5CC(F)C6)nc4c3F)c12 (stereo not drawn) + Cc1cnc(CNC(=O)c2c(=O)c3ccc(N4CCCN(C)CC4)nc3n3c2sc2ccccc23)cn1
viability, T/C / %: 21

Now turn to the next molecule.
Return reported viability, T/C; argument: CC(C)n1c(=O)n(C)c2cnc3cc(F)c(-c4ccc(OCCCN5CCCCC5)nc4)cc3c21 + Cc1cnc(CNC(=O)c2c(=O)c3ccc(N4CCCN(C)CC4)nc3n3c2sc2ccccc23)cn1
31.1

---

system: 616215-338-R-J1-PDC tumor spheroids, viability; assay: Anticancer human tumor 616215-338-R-J1-PDC cell line growth inhibition [GQUAD]; details: curve of first compound; second compound 0.316 µM; spheroids with HUVEC and MSC;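 note: spheroids exposed to agents for 7 days before readout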
Please provide measured IC50 for the entries that follow.

Reference set (3 entries):
compound: C=CC(=O)N1CCN(c2nc(=O)n(-c3c(C)ccnc3C(C)C)c3nc(-c4c(O)cccc4F)c(F)cc23)C(C)C1 (stereo not given) + CN(C)c1ccc(Nc2c3ccc(NC(=O)CCN4CCCC4)cc3nc3cc(NC(=O)CCN4CCCC4)ccc23)cc1
result_value: > 10000 nM
//
compound: Nc1ccn(C2OC(CO)C(O)C2(F)F)c(=O)n1 (stereo not given) + Cc1[nH]c2ccc(F)cc2c1-c1nc2c3cccnc3c3ncccc3c2[nH]1
result_value: < 31.6 nM
//
compound: CC(C)n1c(=O)n(C)c2cnc3cc(F)c(-c4ccc(OCCCN5CCCCC5)nc4)cc3c21 + Cc1cnc(CNC(=O)c2c(=O)c3ccc(N4CCCN(C)CC4)nc3n3c2sc2ccccc23)cn1
result_value: < 31.6 nM

Hey, can you go through the list below and give me IC50 for every item?
1. CCCS(=O)(=O)Nc1ccc(F)c(C(=O)c2c[nH]c3ncc(-c4ccc(Cl)cc4)cc23)c1F + Cc1cnc(CNC(=O)c2c(=O)c3ccc(N4CCCN(C)CC4)nc3n3c2sc2ccccc23)cn1
2. CC[C@@]1(O)C(=O)OCc2c1cc1n(c2=O)Cc2cc3c(CN(C)C)c(O)ccc3nc2-1 + Cc1[nH]c2ccc(F)cc2c1-c1nc2c3cccnc3c3ncccc3c2[nH]1

1: < 31.6 nM; 2: 232 nM

---

system: 616215-338-R-J1-PDC tumor spheroids, viability; assay: Anticancer human tumor 616215-338-R-J1-PDC cell line growth inhibition [GQUAD]; conditions: second compound 0.316 µM; first compound 0.316 µM; stronger effect = lower value; spheroids with HUVEC and MSC;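 note: spheroids exposed to agents for 7 days before readout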;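 for viability, T/C: percent viability relative to DMSO vehicle control wells taken as 100%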
value_kind: viability, T/C

Before answering, review these 2 worked examples.
compound: COc1ccc([C@@H](O)c2cc(-c3ncnc4cc(N5CCOCC5)ccc34)c(F)cc2Cl)nn1 + Cc1cnc(CNC(=O)c2c(=O)c3ccc(N4CCCN(C)CC4)nc3n3c2sc2ccccc23)cn1
target_or_test_system: 616215-338-R-J1-PDC tumor spheroids, viability
viability, T/C: 43%
--
compound: CCc1c2c(nc3ccc(O)cc13)-c1cc3c(c(=O)n1C2)COC(=O)[C@]3(O)CC + CN(C)c1ccc(Nc2c3ccc(NC(=O)CCN4CCCC4)cc3nc3cc(NC(=O)CCN4CCCC4)ccc23)cc1
target_or_test_system: 616215-338-R-J1-PDC tumor spheroids, viability
viability, T/C: 8.81%

For every item in the list below, what is its measured viability, T/C?
1. O=c1[nH]cc(F)c(=O)[nH]1 + Cc1cnc(CNC(=O)c2c(=O)c3ccc(N4CCCN(C)CC4)nc3n3c2sc2ccccc23)cn1
2. CC(C)(O)C1CCC(Nc2ccc3ncc(-c4cccc(C(F)(F)F)c4)n3n2)CC1 (stereo not given) + CN(C)c1ccc(Nc2c3ccc(NC(=O)CCN4CCCC4)cc3nc3cc(NC(=O)CCN4CCCC4)ccc23)cc1
3. COc1cc(C2c3cc4c(cc3C(OC3OC5COC(C)OC5C(O)C3O)C3COC(=O)C23)OCO4)cc(OC)c1O (stereo not given) + Cc1[nH]c2ccc(F)cc2c1-c1nc2c3cccnc3c3ncccc3c2[nH]1

["54.6%", "91.2%", "75.7%"]

---

test system: 616215-338-R-J1-PDC tumor spheroids, viability; assay: Anticancer human tumor 616215-338-R-J1-PDC cell line growth inhibition [GQUAD]; conditions: curve of first compound; second compound 1 µM; spheroids with HUVEC and MSC;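 note: spheroids exposed to agents for 7 days before readout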
value_kind: IC50 (µM)
One number for each entry, in µM.

compound: Cc1[nH]c2ccccc2c1CCNCc1ccc(/C=C/C(=O)NO)cc1 + CN(C)c1ccc(Nc2c3ccc(NC(=O)CCN4CCCC4)cc3nc3cc(NC(=O)CCN4CCCC4)ccc23)cc1
IC50 (µM): 0.118
--
compound: CC(C)(O)C1CCC(Nc2ccc3ncc(-c4cccc(C(F)(F)F)c4)n3n2)CC1 (stereo not given) + Cc1[nH]c2ccc(F)cc2c1-c1nc2c3cccnc3c3ncccc3c2[nH]1
IC50 (µM): 0.644
--
compound: CCCS(=O)(=O)Nc1ccc(F)c(C(=O)c2c[nH]c3ncc(-c4ccc(Cl)cc4)cc23)c1F + Cc1[nH]c2ccc(F)cc2c1-c1nc2c3cccnc3c3ncccc3c2[nH]1
IC50 (µM): 5.42
--
compound: COc1cccc2c1C(=O)c1c(O)c3c(c(O)c1C2=O)CC(O)(C(=O)CO)CC3OC1CC(N)C(O)C(C)O1 (stereo not given) + Cc1[nH]c2ccc(F)cc2c1-c1nc2c3cccnc3c3ncccc3c2[nH]1
IC50 (µM): 0.937

Respectfully, I request IC50 for each entry included below.
1. COc1cc(C2c3cc4c(cc3C(OC3OC5COC(C)OC5C(O)C3O)C3COC(=O)C23)OCO4)cc(OC)c1O (stereo not given) + Cc1[nH]c2ccc(F)cc2c1-c1nc2c3cccnc3c3ncccc3c2[nH]1
2. CC1COCCN1c1cc(C2(O)CC3CCC(C2)O3)c2cnn(-c3ccn[nH]3)c2n1 (stereo not given) + CN(C)c1ccc(Nc2c3ccc(NC(=O)CCN4CCCC4)cc3nc3cc(NC(=O)CCN4CCCC4)ccc23)cc1
3. O=C(NO)c1cnc(N2CCN(S(=O)(=O)c3ccc4ccccc4c3)CC2)nc1 + CN(C)c1ccc(Nc2c3ccc(NC(=O)CCN4CCCC4)cc3nc3cc(NC(=O)CCN4CCCC4)ccc23)cc1
4. C=CCn1c(=O)c2cnc(Nc3ccc(N4CCN(C)CC4)cc3)nc2n1-c1cccc(C(C)(C)O)n1 + CN(C)c1ccc(Nc2c3ccc(NC(=O)CCN4CCCC4)cc3nc3cc(NC(=O)CCN4CCCC4)ccc23)cc1

1: 0.584; 2: 0.201; 3: 0.312; 4: 0.281

State the recorded IC50 for every item in the following list.
1. O=c1[nH]cc(F)c(=O)[nH]1 + CN(C)c1ccc(Nc2c3ccc(NC(=O)CCN4CCCC4)cc3nc3cc(NC(=O)CCN4CCCC4)ccc23)cc1
2. COc1cccc2c1C(=O)c1c(O)c3c(c(O)c1C2=O)CC(O)(C(=O)CO)CC3OC1CC(N)C(O)C(C)O1 (stereo not given) + CN(C)c1ccc(Nc2c3ccc(NC(=O)CCN4CCCC4)cc3nc3cc(NC(=O)CCN4CCCC4)ccc23)cc1

1: 0.562; 2: 0.469

---

test system: 616215-338-R-J1-PDC tumor spheroids, viability; experiment: Anticancer human tumor 616215-338-R-J1-PDC cell line growth inhibition [GQUAD]; conditions: second compound 0.316 µM; first compound 0.316 µM; stronger effect = lower value; spheroids with HUVEC and MSC;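 note: spheroids exposed to agents for 7 days before readout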;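 for viability, T/C: percent viability relative to DMSO vehicle control wells taken as 100%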
What viability, T/C was measured for each of the following?
Answers are plain numbers, in %.

Here is how some compounds turned out for viability, T/C.
compound: CC1COCCN1c1cc(-c2ccnn2C)c2ccnc(-c3ccn[nH]3)c2n1 (stereo not given) + CN(C)c1ccc(Nc2c3ccc(NC(=O)CCN4CCCC4)cc3nc3cc(NC(=O)CCN4CCCC4)ccc23)cc1
result_value: 29.1
//
compound: COc1ncnc(C2CC2)c1-c1ncc2cnn(Cc3ccc(-c4nc(C(F)(F)F)cn4C(C)C)cc3)c2n1 + Cc1cnc(CNC(=O)c2c(=O)c3ccc(N4CCCN(C)CC4)nc3n3c2sc2ccccc23)cn1
result_value: 34.3
//
compound: C#Cc1c(F)ccc2cc(O)cc(-c3ncc4c(N5CC6CCC(C5)N6)nc(OCC56CCCN5CC(F)C6)nc4c3F)c12 (stereo not given) + Cc1cnc(CNC(=O)c2c(=O)c3ccc(N4CCCN(C)CC4)nc3n3c2sc2ccccc23)cn1
result_value: 48.3
//
compound: Cn1ncnc1[C@H]1c2n[nH]c(=O)c3cc(F)cc(c23)N[C@@H]1c1ccc(F)cc1 + CN(C)c1ccc(Nc2c3ccc(NC(=O)CCN4CCCC4)cc3nc3cc(NC(=O)CCN4CCCC4)ccc23)cc1
result_value: 106

Next, consider the following compound.
Please report the recorded viability, T/C for CC1COCCN1c1cc(C2(O)CC3CCC(C2)O3)c2cnn(-c3ccn[nH]3)c2n1 (stereo not given) + Cc1cnc(CNC(=O)c2c(=O)c3ccc(N4CCCN(C)CC4)nc3n3c2sc2ccccc23)cn1 .
23.8
